System: HCT/VM34
protocol-notes: In vitro cytotoxicity assay, HCT/VM34 teniposide-resistant human colon tumor
Format: cell-based
measurement-parameters: HCT/VM34, resistant to teniposide; two values per compound; four-fold serial dilution
measurement-type: In vitro cytotoxicity IC50, HCT/VM34 (µg/mL)

compound="COc1cc([C@@H]2c3cc4c(cc3[C@@H](O[C@@H]3O[C@@H]5CO[C@@H](C)O[C@H]5[C@H](O)[C@H]3O)[C@H]3COC(=O)[C@H]23)OCO4)cc([N+](=O)[O-])c1O [Example 24, 3'-Desmethoxy-3'-nitro etoposide]" observed_result=82
compound=COc1cc([C@@H]2c3cc4c(cc3[C@@H](O[C@@H]3O[C@@H]5CO[C@@H](C)O[C@H]5[C@H](O)[C@H]3O)[C@H]3COC(=O)[C@H]23)OCO4)cc(N=Cc2cc(OC)c(OC)c(OC)c2)c1O observed_result=10.6
compound="COc1cc([C@@H]2c3cc4c(cc3[C@@H](O[C@@H]3O[C@@H]5CO[C@@H](C)O[C@H]5[C@H](O)[C@H]3O)[C@H]3COC(=O)[C@H]23)OCO4)cc2ncoc12 [Example 27, Etoposide benzoxazole derivative]" observed_result=10.6
compound=COc1cc([C@@H]2c3cc4c(cc3[C@@H](O[C@@H]3O[C@@H]5CO[C@@H](C)O[C@H]5[C@H](O)[C@H]3O)[C@H]3COC(=O)[C@H]23)OCO4)cc(NC(=O)NCc2ccccc2)c1O observed_result=26
compound=CC(=O)NC1=CC([C@@H]2c3cc4c(cc3[C@@H](O[C@@H]3O[C@@H]5CO[C@@H](C)O[C@H]5[C@H](O)[C@H]3O)[C@H]3COC(=O)[C@@H]32)OCO4)=CC(=O)C1=O observed_result=64
compound=COc1cc([C@@H]2c3cc4c(cc3[C@@H](O[C@@H]3O[C@@H]5CO[C@@H](C)O[C@H]5[C@H](O)[C@H]3O)[C@H]3COC(=O)[C@H]23)OCO4)cc(NC(=O)NCCCl)c1O observed_result=100
compound=COc1cc([C@@H]2c3cc4c(cc3[C@@H](O[C@@H]3O[C@@H]5CO[C@@H](C)O[C@H]5[C@H](O)[C@H]3O)[C@H]3COC(=O)[C@H]23)OCO4)cc(N=Cc2ccsc2)c1O observed_result=24

These measurements were taken from patent US4853467A.
